protocol description: physchem
test parameters: Polymethylene glycol 200, organic solvent or mixture
measured property: solubility (µg/mL)
Only the number, expressed in µg/mL, is required.

The measured solubility associated with Cc1c(-c2cnccn2)ssc1=S [oltipraz] reads 7990

* * *

protocol description: physchem
test parameters: Polymethylene glycol 400, organic solvent or mixture
measured property: solubility (mg/mL)
Only the number, expressed in mg/mL, is required.

The measured solubility associated with Cc1c(-c2cnccn2)ssc1=S reads 10.5

* * *

protocol description: physchem
test parameters: chloroform, organic solvent or mixture
measured property: solubility (mg/mL)
Only the number, expressed in mg/mL, is required.

The measured solubility associated with Cc1c(-c2cnccn2)ssc1=S [oltipraz] reads 28.6

* * *

protocol description: physchem
test parameters: Transcutol, organic solvent or mixture
measured property: solubility (mg/mL)
Only the number, expressed in mg/mL, is required.

The measured solubility associated with Cc1c(-c2cnccn2)ssc1=S reads 10.3

* * *

protocol description: physchem
test parameters: methylene chloride, organic solvent or mixture
measured property: solubility (µg/mL)
Only the number, expressed in µg/mL, is required.

The measured solubility associated with Cc1c(-c2cnccn2)ssc1=S reads 7600

* * *

protocol description: physchem
test parameters: Dimethylisosorbide, organic solvent or mixture
measured property: solubility (mg/mL)
Only the number, expressed in mg/mL, is required.

The measured solubility associated with Cc1c(-c2cnccn2)ssc1=S reads 17.2

* * *

protocol description: physchem
test parameters: methanol, organic solvent or mixture
measured property: solubility (mg/mL)
Only the number, expressed in mg/mL, is required.

The measured solubility associated with Cc1c(-c2cnccn2)ssc1=S [oltipraz] reads 0.5

* * *

protocol description: physchem
test parameters: acetonitrile, organic solvent or mixture
measured property: solubility

The measured solubility associated with Cc1c(-c2cnccn2)ssc1=S [oltipraz] reads 2.73 mg/mL

* * *

protocol description: physchem
test parameters: Cremophor RH40, organic solvent or mixture
measured property: solubility (mg/mL)
Only the number, expressed in mg/mL, is required.

The measured solubility associated with Cc1c(-c2cnccn2)ssc1=S reads 10.7
